Tested on: stationary phase B. burgdorferi
Experiment: Residual viable B. burgdorferi by epifluorescence microscope counting after drug exposure
Conditions: Borreliella burgdorferi, 168 h, read-out: Residual viable cells (Microscopy)
Method: Borrelia burgdorferi strain B31 (ATCC35210) was received from the […] (Manassas, Va., USA) and was grown in BSK-H medium (HiMedia Laboratories, Mumbai, India) and 6% rabbit serum (Sigma Aldrich, St. Louis, Mo., USA). The culture was filtered and sterilized using a […] and incubated in capped sterile 50 mL conical tubes (BD Biosciences, CA, USA) at 33° C. for 7 days without antibiotics until the culture reached stationary phase. […]
Counter-ions that a name gives are not always drawn.
Label class 1 when viability at 50 µM is strictly below 60%; at or above that, label class 0.

Compound	Group
C=CCCCCCCCCC(=O)O	class 0
C[C@]1(Cn2ccnn2)[C@H](C(=O)O)N2C(=O)C[C@H]2S1(=O)=O	class 1
CCCCCCCCCCCCCCCC[N+](C)(C)CCN(Cc1ccc(OC)cc1)c1ncccn1 [Thonzonium bromide]	class 1
Cc1nc(NS(=O)(=O)c2ccc(N)cc2)oc1C	class 1
CCCCCCCCCC(=O)N[C@@H](Cc1c[nH]c2ccccc12)C(=O)N[C@H](CC(N)=O)C(=O)N[C@@H](CC(=O)O)C(=O)N[C@@H]1C(=O)NCC(=O)N[C@@H](CCCN)C(=O)N[C@@H](CC(=O)O)C(=O)N[C@H](C)C(=O)N[C@@H](CC(=O)O)C(=O)NCC(=O)N[C@H](CO)C(=O)N[C@@H]([C@H](C)CC(=O)O)C(=O)N[C@@H](CC(=O)c2ccccc2N)C(=O)O[C@@H]1C	class 1

# next compound below
// query Is the reported viability at 50 µM for O=C(O)c1cn(-c2ccc(F)cc2)c2cc(N3CCNCC3)c(F)cc2c1=O [Sarafloxacin, Sarafloxacin HCl] strictly below 60%?
// result class 1

* * *

test system: stationary phase B. burgdorferi; assay: Residual viable B. burgdorferi by epifluorescence microscope counting after drug exposure; conditions: Borreliella burgdorferi, 168 h, read-out: Residual viable cells (Microscopy)
Measurement Type: viability at 50 µM (%)
One number for each entry, in %.

These recorded examples may help you get a feel for the data.
Molecule	Measurement Type	Experimental Value
c1ccc(-c2ccc(C(c3ccccc3)n3ccnc3)cc2)cc1 (stereo not drawn) [Bifonazole]	viability at 50 µM	50
Cc1cc(-n2c(=O)[nH]c(=O)n(C)c2=O)ccc1Oc1ccc(SC(F)(F)F)cc1 [Toltrazuril]	viability at 50 µM	60
Cc1c(-c2cnccn2)ssc1=S [Oltipraz]	viability at 50 µM	55
CC(=O)N[C@H]1[C@H]([C@H](O)[C@H](O)CO)OC(C(=O)O)=C[C@@H]1N=C(N)N [Zanamivir]	viability at 50 µM	60
CCc1nc(N)nc(N)c1-c1ccc(Cl)cc1 [Pyrimethamine]	viability at 50 µM	55
C[C@H]1c2cccc(O)c2C(=O)C2=C(O)[C@]3(O)C(=O)C(C(N)=O)=C(O)[C@@H](N(C)C)[C@@H]3[C@@H](O)[C@@H]21 [Doxycycline]	viability at 50 µM	75

Each molecule below has a recorded value; state its viability at 50 µM.
1. C=CC1=C(C(=O)O)N2C(=O)[C@@H](NC(=O)/C(=N\OCC(=O)O)c3csc(N)n3)[C@H]2SC1 [Cefixime]
2. CN(C)c1ccc2nc3ccc(=[N+](C)C)cc-3sc2c1 [Methylene blue hydrate]
3. COc1ccc(C[C@H](N)C(=O)N[C@H]2[C@@H](O)[C@H](n3cnc4c(N(C)C)ncnc43)O[C@@H]2CO)cc1 [Puromycin]
4. CC[C@H]1OC(=O)[C@H](C)[C@@H](O[C@H]2C[C@@](C)(OC)[C@@H](O)[C@H](C)O2)[C@H](C)[C@@H](O[C@@H]2O[C@H](C)C[C@H](N(C)C)[C@H]2O)[C@](C)(O)C[C@@H](C)/C(=N\OCOCCOC)[C@H](C)[C@@H](O)[C@]1(C)O [Roxithromycin]
5. CC1(C)S[C@@H]2[C@H](NC(=O)C(C(=O)O)c3ccccc3)C(=O)N2[C@H]1C(=O)O (stereo partly drawn) [Carbenicillin]

// result
1. 56
2. 40
3. 48
4. 65
5. 64

// query Please give the measured viability at 50 µM for this molecule: CC(C)(C)C(=O)C(Oc1ccc(Cl)cc1)n1ccnc1 (stereo not drawn) [Climbazole]
// result 71

* * *

system: stationary phase B. burgdorferi; assay: SYBR Green I/PI viability assay (drug library screen, plate reader); details: Borreliella burgdorferi, 168 h, read-out: Residual viable cells (SYBR/PI)
Assignment: determine reported viability at 50 µM for the given compounds.
Answers are plain numbers, in %.

These recorded examples may help you get a feel for the data.
                                   compound  experimental_value
0  CCCCCl [Butyl chloride (1-Chlorobutane), 1-Chlorobutane]                  41
1  O=c1n(Cl)c(=O)n(Cl)c(=O)n1Cl [Symclosene (Trichloroisocyanuric acid), Trichloroisocyanuric acid]                  60
2  CCC[S+]([O-])c1ccc2[nH]c(NC(=O)OC)nc2c1 (centres unmarked) [Ricobendazole (Albendazole oxide), Albendazole oxide]                  57
3  O=C(Nc1ccccc1)c1ccccc1O [Salicylanilide]                  63

# ---- query compound ----
// query Please give the measured viability at 50 µM for this compound: S=C=Nc1ccc(N=C=S)cc1 [Bitoscanate]
// result 46

* * *

Tested on: stationary phase B. burgdorferi
Assay: SYBR Green I/PI viability assay (drug library screen, plate reader)
Conditions: Table 3; drugs 50 μM; 7-day old stationary phase cells treated for 7 days
Procedure: Borrelia burgdorferi strain B31 (ATCC35210) was received from the […] (Manassas, Va., USA) and was grown in BSK-H medium (HiMedia Laboratories, Mumbai, India) and 6% rabbit serum (Sigma Aldrich, St. Louis, Mo., USA). The culture was filtered and sterilized using a […] and incubated in capped sterile 50 mL conical tubes (BD Biosciences, CA, USA) at 33° C. for 7 days without antibiotics until the culture reached stationary phase. […]
Label TRUE when Residual viable cells (SYBR/PI) is strictly below 50%; at or above that, label FALSE.

Solved entries (count: 2):
Molecule	Assay System	Group
C[C@@H]1[C@H](O)[C@@H](C)/C=C/C=C/CC/C=C/C=C/C=C/C=C/C(O[C@H]2O[C@H](C)[C@@H](O)[C@H](N)[C@@H]2O)CC2O[C@](O)(CC(O)C(O)CCC(O)CC(O)CC(O)CC(=O)O[C@H]1C)CC(O)C2C(=O)O (some centres unmarked) [Nystatin]	stationary phase B. burgdorferi	FALSE
O=C(Nc1ccc(Cl)cc1)Nc1ccc(Cl)c(Cl)c1 [3,4,4′-Trichlorocarbanilide]	stationary phase B. burgdorferi	TRUE

// query Is the reported Residual viable cells (SYBR/PI) for [I-].[K+] [Potassium iodide] strictly below 50%?
// result FALSE

// query Is the reported Residual viable cells (SYBR/PI) for CO[C@H]1/C=C/O[C@@]2(C)Oc3c(C)c(O)c4c(O)c(c(C=O)c(O)c4c3C2=O)NC(=O)/C(C)=C\C=C\[C@H](C)[C@H](O)[C@@H](C)[C@@H](O)[C@@H](C)[C@H](OC(C)=O)[C@@H]1C [3-formyl Rifamycin] strictly below 50%?
// result TRUE

// query Is the reported Residual viable cells (SYBR/PI) for CC(=O)OCC1=C(C(=O)O)N2C(=O)[C@@H](NC(=O)CCC[C@@H](N)C(=O)O)[C@H]2SC1 [Cephalosporin C] strictly below 50%?
// result FALSE

// query Is the reported Residual viable cells (SYBR/PI) for COc1ccc(C[C@H]2NC[C@H](O)[C@H]2OC(C)=O)cc1 [Anisomycin] strictly below 50%?
// result FALSE

* * *

test system: stationary phase B. burgdorferi; test: Residual viable B. burgdorferi by epifluorescence microscope counting after drug exposure; details: Borreliella burgdorferi, 168 h, read-out: Residual viable cells (Microscopy)
Measurement Type: viability at 50 µM (%)
Answers are plain numbers, in %.

            compound  experimental_value
0  Nc1nc(=O)[nH]cc1F                  66

Each compound below has a recorded value; state its viability at 50 µM.
1. C[C@H]1[C@H](NC(=O)/C(=N\OC(C)(C)C(=O)O)c2csc(N)n2)C(=O)N1S(=O)(=O)O
2. CN1CCCN=C1/C=C/c1cccc(O)c1
3. c1ccc2c(c1)Nc1ccccc1S2

// result
50
63
53

* * *

tested on: stationary phase B. burgdorferi; assay: SYBR Green I/PI viability assay (drug library screen, plate reader); conditions: Borreliella burgdorferi, 168 h, read-out: Residual viable cells (SYBR/PI)
Measurement Type: viability at 50 µM (%)
Numbers only, in %.

These recorded examples may help you get a feel for the data.
Compound	Measurement Type	Unit Abbreviation	Experimental Value
ClC(Cl)=C(Cl)Cl [Tetrachloroethylene]	viability at 50 µM	%	36
Nc1ccc(S(=O)(=O)Nc2ccc(Cl)nn2)cc1 [Sulfachlorpyridazine]	viability at 50 µM	%	58
c1ccc2c(c1)Nc1ccccc1S2 [Phenothiazine]	viability at 50 µM	%	54
C=C(NC(=O)C(=C)NC(=O)c1csc(C2=N[C@@H]3c4csc(n4)[C@H]4NC(=O)c5csc(n5)[C@H]([C@](C)(O)[C@@H](C)O)NC(=O)[C@H]5CSC(=N5)/C(=C/C)NC(=O)[C@H]([C@@H](C)O)NC(=O)c5csc(n5)[C@]3(CC2)NC(=O)[C@H](C)NC(=O)C(=C)NC(=O)[C@H](C)NC(=O)[C@H]([C@@H](C)CC)N[C@@H]2C=Cc3c([C@H](C)O)cc(nc3[C@H]2O)C(=O)O[C@@H]4C)n1)C(N)=O [Thiostrepton]	viability at 50 µM	%	43
CC(C)Cn1cnc2c(N)nc3ccccc3c21 [Imiquimod]	viability at 50 µM	%	64

Each compound below has a recorded value; state its viability at 50 µM.
1. COP(=O)(OC)C(O)C(Cl)(Cl)Cl (stereo not shown) [Metrifonate]
2. Nc1ccc(C(=O)O)c(O)c1 [4-Aminosalicylic acid]

// result
[51, 66]
